Recorded protein stability index for the following variants
B1: TMEM192 (parent)
chain: LWILHLLLECYIQYHHSKIRNRGY

Variants of: B1
Test: protein stability index of a GFP-peptide fusion (GPS, HEK-293T) (PSI 1-6); higher = more stable;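 also: lentivirally expressed fusions sorted by FACS into six bins by GFP to DsRed ratio, PSI derived from sequencing read proportions per bin multiplied by bin number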
Conditions: c terminus: a fixed tail appended
The response must contain the number and no unit.

Answered examples (2):
R20A
3.18
H16V
2.54

Briefly, protein stability index measured for S17D : 2.04

Briefly, protein stability index measured for H16I : 3.68

Briefly, protein stability index measured for L4S : 3.7

Briefly, protein stability index measured for Q13M : 2.08

Briefly, protein stability index measured for H5P : 3.17

Briefly, protein stability index measured for I3N : 2.2

Briefly, protein stability index measured for N21L : 2.11

Briefly, protein stability index measured for L7P : 2.33

Briefly, protein stability index measured for C10S : 1.72

Briefly, protein stability index measured for E9M : 2.33
